- ASSAY CONDITIONS: in isopropanol, 323.15 K

- COMPOUND STRING: "C=C[C@]1(C)C[C@@H](OC(=O)CSCCN(CC)CC)[C@]2(C)[C@H](C)CC[C@]3(CCC(=O)[C@H]32)[C@@H](C)[C@@H]1O.O=C(O)/C=C/C(=O)O"
  solubility (mole fraction): 0.00466

###

- ASSAY CONDITIONS: in isopropyl acetate, 303.15 K

- COMPOUND STRING: "C=C[C@]1(C)C[C@@H](OC(=O)CSCCN(CC)CC)[C@]2(C)[C@H](C)CC[C@]3(CCC(=O)[C@H]32)[C@@H](C)[C@@H]1O.O=C(O)/C=C/C(=O)O"
  solubility (mole fraction): 0.000823
